Assay: Pharmacokinetics of single administration in mice
Format: in vivo, Balb/c mice
Conditions: female, Balb/c, mouse, plasma, iv 2 mg/kg
half-life values, listed per item

| COMPOUND | half-life [min] |
| --- | --- |
| CCn1cc(-c2c[nH]c3ncc(-c4ccc(N5CCC(CC6CCN(C(=O)c7ccc(Cl)c(N8CCC(=O)NC8=O)c7)CC6)CC5)nc4)nc23)cn1 [Compound C162] | 42 |
| COCCn1cc(-c2c[nH]c3ncc(-c4ccc(N5CCC(CC6CCN(C(=O)c7ccc(Cl)c(N8CCC(=O)NC8=O)c7)CC6)CC5)nc4)nc23)cn1 [Compound C201] | 130 |
| O=C1CCN(c2cc(C(=O)N3CCC(CC4CCN(c5ccc(-c6cnc7[nH]cc(-c8cnn(C9CC9)c8)c7n6)cn5)CC4)CC3)ccc2Cl)C(=O)N1 [Compound C170] | 42 |

---

System: IL2 activation in human PBMC
Assay: IL2 activity assay (ELISA) in human PBMC
Assay type: cell-based
Conditions: CD3/CD28 antibody, 24 h
Protocol: The compound was diluted with DMSO in a dilution plate, with a maximum starting concentration of 10 μM, 8 concentration gradient points (3-fold dilution), and then added to the 96-well plate along with the addition of 5 µg/ml CD28 antibody. Incubation was performed for 24 h. • (3) The ELISA plate was washed twice with PBS, and an ELISA dilution was added at 100 µl/well. […] Signals at 450 nM were read by a microplate reader, and the signal intensity was used to characterize the activity level of IL2. […]
pEC50: −log10 of the molar value.
If the reported pEC50 equals or exceeds 7, assign Met. If not, assign Not met.

| COMPOUND | SUBJECT_OF_TEST | CLASS_LABEL |
| --- | --- | --- |
| CCN1CCC(n2cc(-c3c[nH]c4ncc(-c5cnc(OCC(=O)Nc6ccc(NC7CCC(=O)NC7=O)cc6)c(C)c5)nc34)cn2)CC1 (centres unmarked) | IL2 activation in human PBMC | Not met |
| CCN1CCC(n2cc(-c3c[nH]c4ncc(-c5ccc(N6CCC(CC7CCN(C(=O)c8ccc(Cl)c(N9CCC(=O)NC9=O)c8)CC7)CC6)c(F)c5)nc34)cn2)CC1 | IL2 activation in human PBMC | Met |
| CCN1CCC(n2cc(-c3c[nH]c4ncc(-c5cnc(N6CCN(C7CCC(NC(=O)c8cccc(N9CCC(=O)NC9=O)c8)CC7)CC6)c(C)c5)nc34)cn2)CC1 (centres unmarked) | IL2 activation in human PBMC | Not met |
| CCN1CCC(n2cc(-c3c[nH]c4ncc(-c5ccc(N6CCC(CC7CCN(C(=O)c8ccc(Cl)c(N9CCC(=O)NC9=O)c8)CC7)CC6)nc5)nc34)cn2)CC1 | IL2 activation in human PBMC | Not met |
| CCN1CCC(n2cc(-c3c[nH]c4ncc(-c5ccc(N6CCN(C7CCC(NC(=O)c8ccc(Cl)c(N9CCC(=O)NC9=O)c8)CC7)CC6)c(C)c5)nc34)cn2)CC1 (centres unmarked) | IL2 activation in human PBMC | Met |
| CCN1CCC(n2cc(-c3c[nH]c4ncc(-c5ccc(N6CCC(OC7CCN(C(=O)c8ccc(Cl)c(N9CCC(=O)NC9=O)c8)CC7)CC6)c(F)c5)nc34)cn2)CC1 | IL2 activation in human PBMC | Met |
| C/C(=C(Cl)\C=C/CC(=O)N1CCC(CC2CCN(c3ccc(-c4cnc5[nH]cc(-c6cnn(C)c6)c5n4)cn3)CC2)CC1)N1CCC(=O)NC1=O | IL2 activation in human PBMC | Met |
| CCN1CCC(n2cc(-c3c[nH]c4ncc(-c5ccc(N6CCC(OC7CCN(C(=O)c8ccc(Cl)c(N9CCC(=O)NC9=O)c8)CC7)CC6)c(C)c5)nc34)cn2)CC1 | IL2 activation in human PBMC | Met |
| CCn1cc(-c2c[nH]c3ncc(-c4ccc(N5CCC(CC6CCN(C(=O)c7ccc(Cl)c(N8CCC(=O)NC8=O)c7)CC6)CC5)nc4)nc23)cn1 | IL2 activation in human PBMC | Met |
| O=C1CCN(c2cc(C(=O)N3CCC(CC4CCN(c5ccc(-c6cnc7[nH]cc(-c8cnn(C9CC9)c8)c7n6)cn5)CC4)CC3)ccc2Cl)C(=O)N1 | IL2 activation in human PBMC | Met |
